Listing of recorded glass transition temperature by entry.
Hi! Could you send only the number? It should be in °C, unit omitted.

Worked set:
MOLECULE | OBSERVABLE | ENDPOINT_VALUE
*Oc1c(C)cc(C(=O)c2ccc(*)cc2)cc1C (repeat unit) | glass transition temperature | 200.00
*Oc1ccc(S(=O)(=O)c2ccc(Oc3ccc(C(=O)c4ccc(*)cc4)cc3)cc2)cc1 (repeat unit) | glass transition temperature | 205.00

Please examine the following record next.
Input: Look up and report measured glass transition temperature for this entry: *c1ccc(C(=O)NCCCCCCNC(=O)c2ccc(-c3nc4ccccc4nc3*)cc2)cc1 (repeat unit)
Output: 201.00

* * *

Listing of recorded glass transition temperature by entry.
Hi! Could you send only the number? It should be in °C, unit omitted.

Input: Look up and report measured glass transition temperature for this entry: *Oc1c(-c2ccccc2)cc(Cc2cc(-c3ccccc3)c(OC(=O)CCCCCC(*)=O)c(-c3ccccc3)c2)cc1-c1ccccc1 (repeat unit)
Output: 111.00

Input: Look up and report measured glass transition temperature for this entry: *Oc1cccc2ccc(Oc3ccc(NC(=O)c4ccc(S(=O)(=O)c5ccc(C(=O)Nc6ccc(*)cc6)cc5)cc4)cc3)cc12 (repeat unit)
Output: 259.00

Input: Look up and report measured glass transition temperature for this entry: *Oc1ccc(C(C)(C)c2ccc(Oc3ccc(C(=O)c4ccc(C(=O)c5ccc(*)c(C(F)(F)F)c5)cc4)cc3C(F)(F)F)cc2)cc1 (repeat unit)
Output: 171.00

Input: Look up and report measured glass transition temperature for this entry: *Oc1cccc2cc(OC(=O)c3ccc(Oc4ccc(C(*)=O)cc4)cc3)ccc12 (repeat unit)
Output: 179.00

* * *

Listing of recorded glass transition temperature by entry.

COMPOUND | OBSERVABLE | ENDPOINT_VALUE
*Oc1cccc(NC(=O)CCCCCCCCC(=O)Nc2ccc(*)cc2)c1 (repeat unit) | glass transition temperature | 125.00 °C

Input: Look up and report measured glass transition temperature for this entry: *CC1(C)CC(N2C(=O)c3ccc(-c4ccc5c(c4)C(=O)N(*)C5=O)cc3C2=O)CC(C)(C)C1 (repeat unit)
Output: 311.00 °C

Input: Look up and report measured glass transition temperature for this entry: *Oc1ccc(CC(NC(=O)CCc2ccc(OC(=O)CCCCCCCCC(*)=O)cc2)C(=O)OCCCC)cc1 (repeat unit)
Output: 30.00 °C

Input: Look up and report measured glass transition temperature for this entry: *C(=O)OCCCCCOC(=O)c1ccc(NC(=O)c2ccc(N3C(=O)c4ccc(*)cc4C3=O)cc2)cc1 (repeat unit)
Output: 129.00 °C

Input: Look up and report measured glass transition temperature for this entry: *Oc1ccc(C(C)(C)c2ccc(OC(*)=O)c(C(C)C)c2)cc1C(C)C (repeat unit)
Output: 80.00 °C

* * *

Returns: string. Value is Fulfilled if measured glass transition temperature is below 100 °C, and Not fulfilled if it is greater than or equal to it.

MOLECULE | QUALITATIVE_LABEL
*c1ccc(Oc2ccc(C(C)(C)c3ccc(Oc4ccc(S(*)(=O)=O)cc4)cc3)cc2)s1 (repeat unit) | Not fulfilled
*Oc1ccc(NC(=O)c2ccc(C(=O)Nc3ccc(Oc4ccc(C5(c6ccc(*)cc6)CC6CCC5C6)cc4)cc3)cc2)cc1 (repeat unit) | Not fulfilled
*c1ccc(C(=O)Oc2ccc(C(C)(C)c3ccc(OC(=O)c4ccc(N5C(=O)CC(SCCOCCSC6CC(=O)N(*)C6=O)C5=O)cc4)cc3)cc2)cc1 (repeat unit) | Not fulfilled

Input: Given the entry *CC(*)C(=O)OCC(F)(F)F (repeat unit) , would its reported glass transition temperature be below 100 °C?
Output: Fulfilled

Input: Given the entry *c1ccc(-c2ccc(-n3c(-c4ccc(Oc5ccc(C(=O)c6ccc(Oc7ccc(-c8nc9ccccc9n8*)cc7)cc6)cc5)cc4)nc4ccccc43)cc2)cc1 (repeat unit) , would its reported glass transition temperature be below 100 °C?
Output: Not fulfilled

* * *

OBSERVABLE: glass transition temperature (°C)
Hi! Could you send only the number? It should be in °C, unit omitted.

MOLECULE | glass transition temperature (°C)
*c1ccc(CCc2ccccc2N2C(=O)C(=O)N(c3ccc(Oc4ccc(N5C(=O)C(=O)N(*)C5=O)cc4)cc3)C2=O)cc1 (repeat unit) | 208.00
*c1ccc(S(=O)(=O)c2ccc(N3C(=O)C(C)C(SCCOCCSC4C(=O)N(c5ccc(S(=O)(=O)c6ccc(N7C(=O)CC(C)(SCCOCCSC8(C)CC(=O)N(*)C8=O)C7=O)cc6)cc5)C(=O)C4C)C3=O)cc2)cc1 (repeat unit) | 157.00
*C1C(=O)N(CCOc2ccc(-c3ccc(C#N)cc3)cc2)C(=O)C1* (repeat unit) | 150.00

Please examine the following record next.
Input: Look up and report measured glass transition temperature for this entry: *CCCCOC(=O)CCCCCCCCC(=O)O* (repeat unit)
Output: -57.00

* * *

OBSERVABLE: glass transition temperature (°C)
Hi! Could you send only the number? It should be in °C, unit omitted.

Worked set:
MOLECULE | OBSERVABLE | ENDPOINT_VALUE
*O[Si](C)(C)Oc1ccc(*)cc1 (repeat unit) | glass transition temperature | 90.00
*c1ccc(NC(=O)c2cc(C(=O)Nc3ccc(-c4nnc(*)o4)cc3)cc(N3C(=O)c4ccccc4C3=O)c2)cc1 (repeat unit) | glass transition temperature | 327.00

Input: Look up and report measured glass transition temperature for this entry: *CC(O)COC(=O)CCCCCCC(=O)OCC(O)COc1ccc(C(C)(C)c2ccc(O*)cc2)cc1 (repeat unit)
Output: 35.00

* * *

Listing of recorded glass transition temperature by entry.

MOLECULE | glass transition temperature
*c1ccc(Oc2ccc(Oc3ccc(NC(=O)c4cccc(Oc5ccc6c(c5)C(=O)N(*)C6=O)c4)cc3)cc2)cc1 (repeat unit) | 213.00 °C
*C1CCC(CC2CCC(N3C(=O)c4ccc(Oc5ccc6c(c5)C(=O)N(*)C6=O)cc4C3=O)C(C)C2)CC1C (repeat unit) | 250.00 °C
*C/C=C/COC(=O)C(Cc1ccccc1)NC(=O)/C=C/C(=O)NC(Cc1ccccc1)C(=O)O* (repeat unit) | 109.00 °C
*/C(Cl)=C(/*)c1ccccc1 (repeat unit) | 215.00 °C
*c1ccc2c(c1)C(=O)N(c1ccc(N3C(=O)c4ccc(-c5c(-c6ccccc6)c(-c6ccccc6)c(-c6ccc(Oc7ccc(-c8c(-c9ccccc9)c(-c9ccccc9)c(*)c(-c9ccccc9)c8-c8ccccc8)cc7)cc6)c(-c6ccccc6)c5-c5ccccc5)cc4C3=O)cc1)C2=O (repeat unit) | 353.00 °C

Please examine the following record next.
Input: Look up and report measured glass transition temperature for this entry: *OC(=O)CCCCCCCCC(*)=O (repeat unit)
Output: 60.00 °C

* * *

Listing of recorded glass transition temperature by entry.
Hi! Could you send only the number? It should be in °C, unit omitted.

Worked set:
MOLECULE | READING_UNIT | glass transition temperature
*Oc1ccc(Cc2ccc(OC(=O)CCCCC(*)=O)cc2)cc1 (repeat unit) | °C | 60.50
*CCCCCCCCCCOc1ccc(/C=C/c2ccc(OCCCCCCCCCCOP(=O)(O*)OCCCCCCCCCCOc3ccc(/N=N/c4ccc(OC)cc4)cc3)cc2)cc1 (repeat unit) | °C | 58.00
*c1cccc(C(=O)Nc2cccc(S(=O)(=O)c3cccc(NC(=O)c4cccc(N5C(=O)c6ccc(-c7cccc8c7C(=O)N(*)C8=O)cc6C5=O)c4)c3)c2)c1 (repeat unit) | °C | 261.00

Input: Look up and report measured glass transition temperature for this entry: *c1ccc(Cc2ccc(N3C(=O)c4ccc(-c5ccc6c(c5)C(=O)N(*)C6=O)cc4C3=O)cc2)cc1 (repeat unit)
Output: 308.00

Input: Look up and report measured glass transition temperature for this entry: *Oc1ccc(NC(=O)CCCCCCCCCCC(=O)Nc2ccc(*)cc2)cc1 (repeat unit)
Output: 150.00

Input: Look up and report measured glass transition temperature for this entry: *CC(*)C(=O)OCC (repeat unit) [Poly(ethyl acrylate) ]
Output: -22

Input: Look up and report measured glass transition temperature for this entry: *Oc1c(Br)cc(C(c2cc(Br)c(OC(*)=O)c(Br)c2)(C(F)(F)F)C(F)(F)F)cc1Br (repeat unit)
Output: 206.00

* * *

Listing of recorded glass transition temperature by entry.

COMPOUND | glass transition temperature
*CC(=O)Nc1ccc(Cc2ccc(NC(=O)COc3ccc4ccccc4c3Sc3c(O*)ccc4ccccc34)cc2)cc1 (repeat unit) | 241.00 °C
*CCCCCCCCOC(=O)Nc1ccc(NC(=O)OCCCCCCCCOc2ccc(-c3ccc(O*)cc3)cc2)c(C)c1 (repeat unit) | 81.00 °C
*CCCCCCOc1ccc(/C=C2\CC/C(=C\c3ccc(OCCCCCCOP(=O)(O*)OC)c(OC)c3)C2=O)cc1OC (repeat unit) | 74.00 °C
*Oc1ccc(S(=O)(=O)c2ccc(Oc3ccc(/C=N/c4ccc(Oc5ccc(-c6ccc(Oc7ccc(/N=C/c8ccc(*)cc8)cc7)cc6)cc5)cc4)cc3)cc2)cc1 (repeat unit) | 127.00 °C

Input: Look up and report measured glass transition temperature for this entry: *Oc1ccc(CC(NC(=O)Cc2ccc(OC(=O)COCC(*)=O)cc2)C(=O)OCCCCCC)cc1 (repeat unit)
Output: 46.00 °C

Input: Look up and report measured glass transition temperature for this entry: *C1C(=O)N(c2ccc(O[Si](c3ccccc3)(c3ccccc3)c3ccccc3)cc2)C(=O)C1* (repeat unit)
Output: 183.00 °C

Input: Look up and report measured glass transition temperature for this entry: *c1cc(C(c2ccc(OCCN(C)c3ccc(/C=C/C4=CC(=C(/C#N)C(=O)OCc5ccc(Oc6c(F)c(F)c(F)c(F)c6F)cc5)/CC(C)(C)C4)cc3)c(N3C(=O)c4ccc(Oc5ccc6c(c5)C(=O)N(*)C6=O)cc4C3=O)c2)(C(F)(F)F)C(F)(F)F)ccc1OCCN(c1ccccc1)c1ccc(/C=C/C2=CC(=C(/C#N)C(=O)OCc3ccc(Oc4c(F)c(F)c(F)c(F)c4F)cc3)/CC(C)(C)C2)cc1 (repeat unit)
Output: 162.00 °C

Input: Look up and report measured glass transition temperature for this entry: *Oc1ccc(Sc2ccc(Oc3ccc4c(=O)n5c6cc(-c7ccc8c(c7)nc7c9ccc(*)c%10cccc(c(=O)n87)c%109)ccc6nc5c5cccc3c45)cc2)cc1 (repeat unit)
Output: 386.00 °C

Values compiled from the PolyMetriX glass transition set.
